Tested on: ATP;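 note: ATP exposure 15 min at 22 °C before imaging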
assay explanation: switch fluorescence ratio, 500 uM ATP over buffer (Cy3 cluster intensity, sum of 5 cycles each) (fold (ratio)); higher = stronger signal-on switching upon ATP binding; sequences stand for … in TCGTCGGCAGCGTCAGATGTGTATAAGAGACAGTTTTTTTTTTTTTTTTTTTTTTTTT…TC
condition: aptamer strand: ATP DNA aptamer (quencher-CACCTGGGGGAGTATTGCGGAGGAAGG + anchor), 100 nM annealed; ATP concentration: 500 uM
Documented switch fluorescence ratio across a set of sequences
readout label: switch fluorescence ratio

# sequence content, readout label, assay value
records = [
    ("GTATGCAGGG", "switch fluorescence ratio", 0.989),
    ("TGAGGGGAGA", "switch fluorescence ratio", 1.02),
    ("GCAGGGTGGG", "switch fluorescence ratio", 1.02),
    ("AGGTGAGGGT", "switch fluorescence ratio", 1.02),
    ("ATTGTTTGTC", "switch fluorescence ratio", 0.996),
    ("GATTTATACT", "switch fluorescence ratio", 1.06),
    ("TATGTTATTT", "switch fluorescence ratio", 1.02),
]

* * *

System: ATP;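 note: ATP exposure 15 min at 22 °C before imaging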
assay explanation: switch fluorescence ratio, 500 uM ATP over buffer (Cy3 cluster intensity, sum of 5 cycles each) (fold (ratio)); higher = stronger signal-on switching upon ATP binding; sequences stand for … in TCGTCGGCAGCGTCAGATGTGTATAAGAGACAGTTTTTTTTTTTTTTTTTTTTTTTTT…TC
condition: aptamer strand: ATP DNA aptamer (quencher-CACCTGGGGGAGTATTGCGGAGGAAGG + anchor), 100 nM annealed; ATP concentration: 500 uM

# sequence content, switch fluorescence ratio
records = [
    ("TTGAGCAGCG", 1.09),
    ("GCATGAACAT", 0.98),
    ("GGGGGAACGG", 1.08),
    ("TGTGTAGGGG", 1.04),
    ("TAAAAGTATA", 0.985),
    ("GCGATTGTAA", 0.985),
    ("GAAATTAGGA", 1.01),
    ("AATACAAGGC", 1.08),
    ("TTTTGCGAAG", 1.03),
    ("TTTCGACACG", 0.989),
    ("TCTCGTTGGG", 1.01),
    ("GAATCGGTAG", 0.978),
    ("GAAGGACAGA", 1),
    ("GGGGACTTTT", 0.99),
    ("AAGGGAACTC", 1.03),
    ("GGGAGACGGT", 1.02),
    ("CAAAGACACA", 0.985),
    ("TTTTTGGAGG", 1),
    ("GATAAGAGCG", 0.975),
    ("ATAGTCCTCC", 1.2),
    ("AAATGTCTCT", 1.01),
    ("GCAGGACGGG", 1.4),
    ("CAGGCGGAGA", 0.969),
    ("TTATGGGCGA", 1),
    ("GGGTTTGGTG", 0.987),
    ("AGTCTGTAGT", 0.981),
    ("AATGGAATCC", 1.02),
    ("AGGGGGCGGT", 0.959),
    ("TAGTTGAGTG", 0.987),
    ("AGGGGCCCGC", 0.98),
    ("TGGTCCTAGG", 1),
    ("TAATAAGGTG", 1.13),
    ("TCTCGTCTCT", 1.04),
    ("CGCGGTTAAA", 1.18),
    ("GCATTTGCTG", 0.972),
    ("CCTTTTTGGT", 1.02),
    ("CACCGACTTT", 1.06),
    ("ATTAGGTACG", 1.02),
    ("GTTGCAATTT", 1.16),
    ("AGGTTTTTAT", 1.06),
    ("TATTGAGTTA", 1.01),
    ("TGTTGGGTGG", 0.995),
    ("CACTTTTTTA", 0.962),
    ("TTCTGACGGT", 1.12),
    ("GTGGCTGGGG", 1),
    ("GAGGTGGTGC", 0.966),
    ("TACACTTGTA", 1.03),
    ("AGGGCTGCCC", 1),
    ("TTAATGATGG", 1.01),
    ("AGTCGGAAAG", 1.02),
    ("CGAAAAAAGA", 1.05),
    ("GGGGACCAAT", 1),
    ("GAGGAAGTCG", 0.996),
    ("CGATGTCGTA", 1.03),
    ("GAGCGGATTT", 1.03),
    ("AAAATTGGGA", 1.01),
    ("ATGTTGGCGT", 1),
    ("TTAGAGCTTT", 0.975),
    ("GACGGGATTT", 1.03),
    ("ATGTGGGGGA", 1.02),
    ("GTAAATTTGA", 1.03),
]

* * *

Tested on: ATP;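 note: ATP exposure 15 min at 22 °C before imaging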
assay explanation: switch fluorescence ratio, 500 uM ATP over buffer (Cy3 cluster intensity, sum of 5 cycles each) (fold (ratio)); higher = stronger signal-on switching upon ATP binding; sequences stand for … in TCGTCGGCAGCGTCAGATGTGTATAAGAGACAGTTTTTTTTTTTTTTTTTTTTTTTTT…TC
condition: aptamer strand: ATP DNA aptamer (quencher-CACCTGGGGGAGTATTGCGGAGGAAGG + anchor), 100 nM annealed; ATP concentration: 500 uM
Documented switch fluorescence ratio across a set of sequences
readout label: switch fluorescence ratio

# sequence content, assay value
records = [
    ("TGGATGGCC", 1.02),
    ("GGGGCACGTG", 0.995),
    ("GTTGGGGCGG", 1.01),
    ("TTTGGATGAC", 1.01),
]

* * *

Tested on: ATP;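 note: ATP exposure 15 min at 22 °C before imaging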
assay explanation: switch fluorescence ratio, 500 uM ATP over buffer (Cy3 cluster intensity, sum of 5 cycles each) (fold (ratio)); higher = stronger signal-on switching upon ATP binding; sequences stand for … in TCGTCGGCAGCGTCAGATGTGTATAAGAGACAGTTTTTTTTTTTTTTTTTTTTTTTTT…TC
condition: aptamer strand: ATP DNA aptamer (quencher-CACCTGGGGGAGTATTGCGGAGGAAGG + anchor), 100 nM annealed; ATP concentration: 500 uM
Documented switch fluorescence ratio across a set of sequences
readout label: switch fluorescence ratio

# sequence content, readout label, assay value
rows = [
    ("ACATATTTTG", "switch fluorescence ratio", 1.01),
    ("TTAGTGTTTT", "switch fluorescence ratio", 0.98),
    ("CTTCGGTGTT", "switch fluorescence ratio", 0.997),
    ("GCGGGTGGTA", "switch fluorescence ratio", 1.01),
    ("ATCATGCGGC", "switch fluorescence ratio", 0.983),
    ("TTTTGTGGGT", "switch fluorescence ratio", 0.986),
    ("CATTTGGATG", "switch fluorescence ratio", 1.02),
    ("CCAAGGGGAG", "switch fluorescence ratio", 0.988),
    ("GGTTAAACTT", "switch fluorescence ratio", 1.02),
    ("CAAGAGGGTT", "switch fluorescence ratio", 0.99),
    ("AGGGGATTC", "switch fluorescence ratio", 1),
    ("GCCATGCGTC", "switch fluorescence ratio", 1.01),
    ("TAAAGCCGGT", "switch fluorescence ratio", 1.01),
    ("AAAGGTACGT", "switch fluorescence ratio", 0.987),
    ("ACTTGGTAT", "switch fluorescence ratio", 1),
    ("AAGTTTTCGG", "switch fluorescence ratio", 0.989),
    ("CGGGGAAGCG", "switch fluorescence ratio", 1.01),
    ("AGAATGGGAA", "switch fluorescence ratio", 1),
    ("GGGACCCAAG", "switch fluorescence ratio", 1.02),
    ("GGTTTTATGG", "switch fluorescence ratio", 0.988),
    ("ATCTTAGGGT", "switch fluorescence ratio", 0.978),
    ("GCGGGCATTT", "switch fluorescence ratio", 0.995),
    ("GGGGTAGTAG", "switch fluorescence ratio", 0.979),
    ("GGATGCGGGT", "switch fluorescence ratio", 1),
]

* * *

System: ATP;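 note: ATP exposure 15 min at 22 °C before imaging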
assay explanation: switch fluorescence ratio, 500 uM ATP over buffer (Cy3 cluster intensity, sum of 5 cycles each) (fold (ratio)); higher = stronger signal-on switching upon ATP binding; sequences stand for … in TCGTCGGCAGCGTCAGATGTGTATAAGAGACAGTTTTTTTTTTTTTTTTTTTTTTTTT…TC
condition: aptamer strand: ATP DNA aptamer (quencher-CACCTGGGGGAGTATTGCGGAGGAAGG + anchor), 100 nM annealed; ATP concentration: 500 uM
Documented switch fluorescence ratio across a set of sequences
readout label: switch fluorescence ratio

# sequence content, assay value
rows = [
    ("TCATCTAGGA", 0.985),
    ("AATTATGATG", 0.995),
    ("ACTGGTATTG", 1.02),
    ("AGGGGGAGGT", 0.975),
    ("TTGCTGGATT", 1),
    ("AGTAAAAGTT", 0.989),
    ("GGGTGGGGAC", 0.975),
    ("TAAGGTGTGA", 1.02),
    ("TTGGTTTGCC", 0.982),
    ("GAGGAGGGGC", 1.02),
    ("TTTAAGGTTA", 0.999),
    ("GCTGCGGGGT", 0.993),
    ("GAGAAAATCT", 1.01),
    ("GGGGGGTGG", 0.991),
    ("ATCTGTACGA", 1.02),
    ("TTATGCCGGG", 0.971),
    ("GGAGGAACAT", 1.02),
    ("TCCCGGGTAT", 0.979),
    ("TTTGGCTGTG", 0.973),
    ("GATGGAACTA", 1.01),
    ("ATTTGTGGTG", 1.01),
    ("TTGTTGATTT", 1.02),
    ("AAGTCATTAA", 0.99),
    ("CATTGTGTTT", 0.971),
    ("ATCGGGAATG", 1.02),
    ("GAAGGGGTTT", 0.999),
    ("AGGCCCTAAG", 1.01),
    ("TTTTTAGCTG", 1.04),
    ("GGTTAGTAGG", 0.986),
    ("TTTTTATCTA", 1.01),
    ("CCTCTTTTTG", 1.02),
    ("ATATCGGAGG", 0.99),
    ("AGGAATATTT", 1.04),
    ("GTAGCAGACG", 1.16),
]
